This section presents compounds with their documented DC50 values.
target: AR protein in VCaP cells (Homo sapiens, UniProt P10275); construct: endogenous in cells; host or cells: VCaP cells; experiment: VCAP AR Degradation Assay (AR ELISA, 24 h); type: cell-based; conditions: concentration of compound when AR level = 50% of DMSO control, read-out: DC50
Sequence (P10275 whole entry): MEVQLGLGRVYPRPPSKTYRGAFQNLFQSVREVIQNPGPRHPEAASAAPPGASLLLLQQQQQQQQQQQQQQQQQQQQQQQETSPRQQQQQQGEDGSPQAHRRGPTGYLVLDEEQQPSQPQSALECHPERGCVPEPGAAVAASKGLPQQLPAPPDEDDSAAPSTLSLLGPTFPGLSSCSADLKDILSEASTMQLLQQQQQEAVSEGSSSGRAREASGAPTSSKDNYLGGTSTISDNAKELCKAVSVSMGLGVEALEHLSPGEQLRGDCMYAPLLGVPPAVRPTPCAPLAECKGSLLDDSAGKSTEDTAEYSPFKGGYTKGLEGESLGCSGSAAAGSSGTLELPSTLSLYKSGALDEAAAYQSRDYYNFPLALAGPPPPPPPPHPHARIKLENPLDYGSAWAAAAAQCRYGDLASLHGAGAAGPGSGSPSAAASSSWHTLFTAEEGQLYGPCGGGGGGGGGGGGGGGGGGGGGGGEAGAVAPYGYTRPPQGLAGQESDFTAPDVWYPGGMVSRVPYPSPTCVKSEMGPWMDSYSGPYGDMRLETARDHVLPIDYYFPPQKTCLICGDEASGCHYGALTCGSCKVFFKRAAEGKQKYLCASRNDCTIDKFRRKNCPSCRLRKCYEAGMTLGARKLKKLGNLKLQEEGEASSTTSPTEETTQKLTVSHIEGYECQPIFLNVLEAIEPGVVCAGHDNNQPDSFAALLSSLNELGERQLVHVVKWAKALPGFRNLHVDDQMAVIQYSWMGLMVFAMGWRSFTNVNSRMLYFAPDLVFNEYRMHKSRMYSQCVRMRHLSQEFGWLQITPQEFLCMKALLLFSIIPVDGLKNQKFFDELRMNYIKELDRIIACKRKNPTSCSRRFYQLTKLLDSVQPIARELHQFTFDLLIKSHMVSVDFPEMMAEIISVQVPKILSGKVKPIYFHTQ

Known results for compounds:
compound | DC50
CCc1cc(N2C(=S)N(c3ccc(C#N)c(C(F)(F)F)c3)C(=O)C23CCC3)ccc1OCCC1CCN([C@@H](C)C(=O)Nc2cccc(NC3CCC(=O)NC3=O)c2)CC1 (some centres unmarked) [Cmpd 59] | 100 to 500 nM
CC1(C)C(=O)N(c2ccc(C#N)c(C(F)(F)F)c2)C(=S)N1c1ccc(OCCC2CCN(CC(=O)Nc3cc(Cl)cc(NC4CCC(=O)NC4=O)c3)CC2)c(F)c1 (centres unmarked) [Cmpd 10] | 100 to 500 nM
CCc1cc(N2C(=S)N(c3ccc(C#N)c(C(F)(F)F)c3)C(=O)C2(C)C)ccc1OCCC1CCN([C@H](C)C(=O)Nc2cc(Cl)cc(NC3CCC(=O)NC3=O)c2)CC1 (some centres unmarked) [Cmpd 21] | 100 to 500 nM

DC50 for CCc1cc(N2C(=S)N(c3cnc(C#N)c(C(F)(F)F)c3)C(=O)C23CCC3)ccc1OCCC1CCN([C@H](C)C(=O)Nc2cccc(NC3CCC(=O)NC3=O)c2)CC1 (some centres unmarked) [Cmpd 84] is < 100 nM

DC50 for CC1(C)C(=O)N(c2ccc(C#N)c(C(F)(F)F)c2)C(=S)N1c1ccc(OCCC2CCN(CC(=O)Nc3cccc(NC4CCC(=O)NC4=O)c3)CC2)c(CCF)c1 (centres unmarked) [Cmpd 48] is < 100 nM

DC50 for CCc1cc(N2C(=S)N(c3cnc(C#N)c(C(F)(F)F)c3)C(=O)C2(C)C)ccc1OCCC1CCN([C@H](C)C(=O)Nc2cc(C#N)cc(NC3CCC(=O)NC3=O)c2)CC1 (some centres unmarked) [Cmpd 38] is < 100 nM

DC50 for CCc1cc(N2C(=S)N(c3cnc(C#N)c(C(F)(F)F)c3)C(=O)C2(C)C)ccc1OCCC1CCN([C@@H](C)C(=O)Nc2cc(Cl)cc(NC3CCC(=O)NC3=O)c2)CC1 (some centres unmarked) [Cmpd 23] is < 100 nM

Source: patent US11325889B2
